Taken from the supplement of paper PMC5662764.

Please provide measured normalised growth rate inhibition for the entries that follow.
Tested on: MDAMB231
Experimental protocol: normalised growth rate inhibition (GR value) relative to DMSO control (GR (1 = untreated growth, 0 = cytostasis, <0 = cytotoxic)); higher = less growth inhibition
Reported conditions: 0.12 µM; 72 h

Quick note, normalised growth rate inhibition for O=c1cc(N2CCOCC2)oc2c(-c3cccc4c3sc3ccccc34)cccc12 landed at 0.955

Memo: COc1cc(N2CCC(C(N)=O)CC2)ccc1Nc1nc(N)c(Cl)c(Nc2ccccc2S(=O)(=O)C(C)C)n1 , reported normalised growth rate inhibition: 0.861

// recorded normalised growth rate inhibition for Cc1ncc(-c2ccnc(Nc3ccc(S(C)(=O)=O)cc3)n2)n1C(C)C : 0.633

Lab note: CCOc1cc2ncc(C#N)c(Nc3ccc(OCc4ccccn4)c(Cl)c3)c2cc1NC(=O)/C=C/CN(C)C gave normalised growth rate inhibition of 0.868

Looking up CC(=O)Nc1cccc(-n2c(=O)n(C3CC3)c(=O)c3c(Nc4ccc(I)cc4F)n(C)c(=O)c(C)c32)c1 , I found its normalised growth rate inhibition recorded as 0.129

The value of normalised growth rate inhibition measured for the compound Cc1cc([C@@H](C)Nc2ccccc2C(=O)O)c2nc(N3CCOCC3)cc(=O)n2c1 turned out to be 0.888

The compound c1ccc2c(-c3cnn4cc(-c5ccc(N6CCNCC6)cc5)cnc34)ccnc2c1 showed normalised growth rate inhibition equal to 0.938

Entry under test: Cn1cc(-c2[nH]c3cc(NC(=O)[C@H](N)C4CCCCC4)cc4c3c2C=NNC4=O)cn1 . Its normalised growth rate inhibition was 0.913

The compound listed as C=CC(=O)Nc1cc2c(Nc3ccc(F)c(Cl)c3)ncnc2cc1OCCCN1CCOCC1 shows normalised growth rate inhibition equal to 0.965

get_value(item= CN(c1ccccc1CNc1nc(Nc2ccc3c(c2)CC(=O)N3)ncc1C(F)(F)F)S(C)(=O)=O , readout=normalised growth rate inhibition) returns 0.78

Lab book: normalised growth rate inhibition of C=CC(=O)N1CCc2ccc(-n3c(=O)ccc4cnc5ccc(-c6cnn(C)c6)cc5c43)cc21 noted as 0.541

// Nc1cccc(-c2cc3c(Oc4cccc(O)c4)ncnc3[nH]2)c1 : normalised growth rate inhibition value = 0.961

The reported normalised growth rate inhibition of the compound Cc1cn(-c2cc(NC(=O)c3ccc(C)c(Nc4nccc(-c5cccnc5)n4)c3)cc(C(F)(F)F)c2)cn1 was 0.914

In plain terms, COC1=C2C[C@@H](C)C[C@H](OC)[C@H](O)[C@@H](C)/C=C(\C)[C@H](OC(N)=O)[C@@H](OC)/C=C\C=C(/C)C(=O)NC(=CC1=O)C2=O has a documented normalised growth rate inhibition of 0.0763

Form: compound = COc1ccc(-c2ccc3c(N4CCOC[C@@H]4C)nc(N4CCOC[C@@H]4C)nc3n2)cc1CO ; normalised growth rate inhibition = 0.317

Summary for this compound, CN1CC[C@H](c2c(O)cc(O)c3c(=O)cc(-c4ccccc4Cl)oc23)[C@H](O)C1 : normalised growth rate inhibition is -0.239

compound Cc1cc2c(F)c(Oc3ncnn4cc(OC[C@@H](C)O)c(C)c34)ccc2[nH]1 , normalised growth rate inhibition observed: 0.892

normalised growth rate inhibition reported for this compound CCCS(=O)(=O)Nc1ccc(F)c(C(=O)c2c[nH]c3ncc(Cl)cc23)c1F : 1.01

Record C=CC(=O)Nc1cccc(Nc2nc(NC3CCC(N(C)C)CC3)nc3c2ncn3C(C)C)c1 (stereo not drawn) . Reported normalised growth rate inhibition: -0.232

// normalised growth rate inhibition lookup, compound = C[C@]1(O)C[C@@H](c2nc(-c3ccc4ccc(-c5ccccc5)nc4c3)c3c(N)nccn32)C1 , result: 0.843

# normalised growth rate inhibition (compound: O=C1NC(=O)/C(=C/c2ccc3nccc(-c4ccncc4)c3c2)S1 ) is 0.992

Per the records, this compound ( Cc1nc(NC(=O)N2CCC[C@H]2C(N)=O)sc1-c1ccnc(C(C)(C)C(F)(F)F)c1 ) has normalised growth rate inhibition equal to 0.986

Per the record, COc1cc(C(=O)N2CCC(N3CCN(C)CC3)CC2)ccc1Nc1ncc2c(n1)N(C)c1ccccc1C(=O)N2C has normalised growth rate inhibition of 0.818

The compound identified as COC(=O)c1ccc2c(C(=Nc3ccc(N(C)C(=O)CN4CCN(C)CC4)cc3)c3ccccc3)c(O)[nH]c2c1 registered its normalised growth rate inhibition at 1.04

Sure, the documented normalised growth rate inhibition for NC1(c2ccc(-c3nc4ccn5c(=O)[nH]nc5c4cc3-c3ccccc3)cc2)CCC1 is 0.904

normalised growth rate inhibition in this record for CC(=O)c1c(C)c2cnc(Nc3ccc(N4CCNCC4)cn3)nc2n(C2CCCC2)c1=O : 0.579

For this compound ( Nc1ccc(C(=O)Nc2cccc(-c3nc(N4CCOCC4)c4oc5ncccc5c4n3)c2)cn1 ), measured normalised growth rate inhibition is 0.954

Quick note, normalised growth rate inhibition for CCN(CC)CCCCNc1ncc2cc(-c3cc(OC)cc(OC)c3)c(NC(=O)NC(C)(C)C)nc2n1 landed at 1.07

compound CCCS(=O)(=O)Nc1ccc(F)c(C(=O)c2c[nH]c3ncc(-c4ccc(Cl)cc4)cc23)c1F , normalised growth rate inhibition observed: 0.965

Per the record, CC[C@H](CO)Nc1nc(NCc2ccccc2)c2ncn(C(C)C)c2n1 has normalised growth rate inhibition of 0.971

The recorded normalised growth rate inhibition for entry N#CC[C@H](C1CCCC1)n1cc(-c2ncnc3[nH]ccc23)cn1 equals 0.922

normalised growth rate inhibition in this record for CN1CCN(CCOc2cc(OC3CCOCC3)c3c(Nc4c(Cl)ccc5c4OCO5)ncnc3c2)CC1 : 0.704

In plain terms, CC1=C(CO)C(=O)O[C@@H]([C@@H](C)[C@H]2CC[C@H]3[C@@H]4C[C@H]5O[C@]56[C@@H](O)C=CC(=O)[C@]6(C)[C@H]4CC[C@]23C)C1 has a documented normalised growth rate inhibition of 1

###

Test system: MDAMB231
Experimental protocol: normalised growth rate inhibition (GR value) relative to DMSO control (GR (1 = untreated growth, 0 = cytostasis, <0 = cytotoxic)); higher = less growth inhibition
Reported conditions: 0.12 µM; 72 h
Output schema: class label derived from normalised growth rate inhibition. Mapping: low value = under 0.4, medium value = from 0.4 up to 0.9, high value = 0.9 and over

[ask] Input Cc1cnc(-c2cnc(NCCNc3ccc(C#N)cn3)nc2-c2ccc(Cl)cc2Cl)[nH]1 ; output its category
[reply] medium value

[ask] Tag the class for Cn1cnc2c(F)c(Nc3ccc(Br)cc3Cl)c(C(=O)NOCCO)cc21
[reply] medium value

[ask] Place this compound in its band: CC(=O)Nc1nc(C)c(-c2ccc(Cl)c(S(=O)(=O)NCCO)c2)s1
[reply] high value

[ask] Sort C#Cc1cccc(Nc2ncnc3cc(OCCOC)c(OCCOC)cc23)c1 into one of the categories.
[reply] high value

[ask] Band assignment needed for NC(=O)Nc1cc(-c2cccc(F)c2)sc1C(=O)N[C@H]1CCCNC1 please.
[reply] low value

[ask] In plain terms, what class is CNC(=O)Nc1ccc(-c2nc(N3CC4CCC(C3)O4)c3cnn(C4CCC5(CC4)OCCO5)c3n2)cc1 ?
[reply] low value

[ask] Which class holds OCCCNc1cc(-c2ccnc(Nc3cccc(Cl)c3)n2)ccn1 ?
[reply] low value

###

Tested on: MCF7
Experimental protocol: normalised growth rate inhibition (GR value) relative to DMSO control (GR (1 = untreated growth, 0 = cytostasis, <0 = cytotoxic)); higher = less growth inhibition
Reported conditions: 1.11 µM; 72 h
Result type: normalised growth rate inhibition
Give the figure by itself; no unit, no explanation.

The molecule listed as C#Cc1cccc(Nc2ncnc3cc(OCCOC)c(OCCOC)cc23)c1 [erlotinib] has a reported normalised growth rate inhibition of 1.06

Summary for this molecule, CC(C)(C)c1cnc(CSc2cnc(NC(=O)C3CCNCC3)s2)o1 : normalised growth rate inhibition is -0.326

The reported normalised growth rate inhibition of the molecule CS(=O)(=O)N1CCN(Cc2cc3nc(-c4cccc5[nH]ncc45)nc(N4CCOCC4)c3s2)CC1 [GDC-0941] was -0.00416

Sample CN1CCN(CCOc2cc(OC3CCOCC3)c3c(Nc4c(Cl)ccc5c4OCO5)ncnc3c2)CC1 [saracatinib] ; normalised growth rate inhibition observed: 0.323

The molecule listed as Cc1cc([C@@H](C)Nc2ccccc2C(=O)O)c2nc(N3CCOCC3)cc(=O)n2c1 [AZD-6482] shows normalised growth rate inhibition equal to 0.906

So for COc1cc2ncn(-c3cc(OCc4ccccc4C(F)(F)F)c(C(N)=O)s3)c2cc1OC , the logged normalised growth rate inhibition turned out to be 0.072

Lookup result for Cc1[nH]c(/C=C2\C(=O)Nc3ccc(S(=O)(=O)Cc4c(Cl)cccc4Cl)cc32)c(C)c1C(=O)N1CCC[C@@H]1CN1CCCC1 ; measured normalised growth rate inhibition: 1.01

# molecule Cc1ccc(NC(=O)c2ccc(CN3CCN(C)CC3)cc2)cc1Nc1nccc(-c2cccnc2)n1 [imatinib] ; its normalised growth rate inhibition = 1.06
